Reported pKi by item:
Target: Thermolysin (Bacillus thermoproteolyticus, UniProt P00800)
Sequence (P00800 233-548 limits assumed): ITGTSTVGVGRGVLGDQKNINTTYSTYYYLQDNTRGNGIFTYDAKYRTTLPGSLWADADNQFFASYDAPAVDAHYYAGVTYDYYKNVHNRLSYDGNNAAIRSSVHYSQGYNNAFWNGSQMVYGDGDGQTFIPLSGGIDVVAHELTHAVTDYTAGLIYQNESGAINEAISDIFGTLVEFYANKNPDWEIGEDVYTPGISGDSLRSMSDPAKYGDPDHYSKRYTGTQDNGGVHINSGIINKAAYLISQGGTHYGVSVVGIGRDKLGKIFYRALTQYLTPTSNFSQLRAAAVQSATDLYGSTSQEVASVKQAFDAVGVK
Test: Binding affinity to Bacillus thermoproteolyticus thermolysin by UV-VIS spectrophotometric analysis in presence of 2-furanacryloyl-Gly-Leu-NH2
On this scale, pKi is minus log10 of a concentration expressed in M (mol/L).

Worked examples, 3 compounds total:
{"columns": ["STRUCTURE_NOTATION", "STUDY_TARGET", "pKi"],
 "data": [
  ["CNC(=O)[C@H](CC(C)C)NP(=O)(O)CNC(=O)OCc1ccccc1", "Thermolysin (Bacillus thermoproteolyticus, UniProt P00800)", 6.04],
  ["CCNC(=O)[C@H](CC(C)C)NP(=O)(O)CNC(=O)OCc1ccccc1", "Thermolysin (Bacillus thermoproteolyticus, UniProt P00800)", 6.54],
  ["CC(C)C[C@H](NP(=O)(O)CNC(=O)OCc1ccccc1)C(=O)NCC(=O)O", "Thermolysin (Bacillus thermoproteolyticus, UniProt P00800)", 6.33]
]}

Continue with the next compound.
Lookup result for CC(C)C[C@H](NP(=O)(O)CNC(=O)OCc1ccccc1)C(=O)N[C@@H](C)C(=O)O ; measured pKi: 7.72

Every entry's value here was drawn from ChEMBL document CHEMBL2169829.
